Would you mind telling me the reported IC50 of each entry?
Target: methionyl-tRNA synthetase (Trypanosoma brucei brucei)
Assay: inhibition of trypanosomal methionyl-tRNA synthetase – biochemical, luminescence, dose response, round 1, late-stage follow-up (AID 743153)
Settings: recombinant T. brucei MetRS, luminescence (ATP depletion)
The source made the active and inactive calls. No rule for the calls is given here.

// below: answered compounds
given-smiles: CCN(CC)C(=O)C(=O)c1cn(CC(=O)N2CCCc3ccccc32)c2ccccc12
IC50: > 119 µM (inactive)
--
given-smiles: CCc1ccc2[nH]c3nc(SCC(=O)NCc4cccc(OC)c4)nnc3c2c1
IC50: > 39.5 µM (inactive)

Dear colleague, could you send me IC50 for each of the items below? Thanks.
1. CCc1ccc2c(c1)c1nnc(SCC(=O)Nc3ccc4c(c3)OCO4)nc1n2C
2. CCN(CC)C(=O)C(=O)c1cn(CC(=O)Nc2ccccc2OC)c2ccccc12

1: > 119 µM (inactive); 2: > 119 µM (inactive)

---

Molecular target: methionyl-tRNA synthetase (Trypanosoma brucei brucei)
Assay: inhibition of trypanosomal methionyl-tRNA synthetase – biochemical, luminescence, dose response, round 1, late-stage follow-up (AID 743153)
Details: recombinant T. brucei MetRS, luminescence (ATP depletion)
Active and inactive are the calls of the source. The rule behind the calls is not given here.
Would you mind telling me the reported IC50 of each entry?

molecule: CC(=O)N(CCc1ccccc1)C1CC(=O)N(c2ccc(Br)cc2)C1=O (stereo not given)
IC50: > 39.5 µM (inactive)

molecule: CCN(CC)C(=O)C(=O)c1cn(CC(=O)Nc2cccc(C(F)(F)F)c2)c2ccccc12
IC50: 0.11 µM

molecule: CCC(=O)c1cn(CC(=O)Nc2cccc(C(F)(F)F)c2)c2ccccc12
IC50: > 39.5 µM (inactive)

molecule: CCN(CC)C(=O)C(=O)c1cn(CC(=O)Nc2cccc(OC)c2)c2ccccc12
IC50: 1.84 µM

molecule: O=C(Cn1cc(C(=O)c2ccco2)c2ccccc21)Nc1cccc(C(F)(F)F)c1
IC50: 1.39 µM

molecule: O=C(NCCc1nc2ccccc2[nH]1)c1ccc(Cl)cc1
IC50: 4.86 µM

Dear colleague, could you send me IC50 for each of the items below? Thanks.
1. CCN(CCc1nc2ccc(C)cc2[nH]1)C(=O)c1ccc2ncccc2c1
2. O=C(NCCc1nc2ccccc2[nH]1)c1ccc(Cl)cc1Cl
3. Cc1cccc(C(=O)NCCc2nc3ccccc3n2CCOc2ccccc2)c1

> 119 µM (inactive)
0.905 µM
> 39.5 µM (inactive)

---

Molecular target: methionyl-tRNA synthetase (Trypanosoma brucei brucei)
Test: inhibition of trypanosomal methionyl-tRNA synthetase – biochemical, luminescence, dose response, round 1, late-stage follow-up (AID 743153)
Details: recombinant T. brucei MetRS, luminescence (ATP depletion)
The source made the active and inactive calls. The rule behind the calls is not given here.
Thanks in advance; please answer with one of these: true (1) for active, false (0) for inactive

Answered examples (2):
compound: O=C(Cn1cc(C(=O)C(=O)N2CCOCC2)c2ccccc21)NCC1CCCO1 (stereo unspecified)
assigned-class: false (0)

compound: COc1ccc(CCN(C(=S)Nc2ccccc2)C2CC(=O)N(c3ccc(Cl)cc3)C2=O)cc1 (stereo unspecified)
assigned-class: true (1)

Below: the item to evaluate.
What classification did CC(=O)N(CCc1ccccc1)C1CC(=O)N(c2ccc(Cl)cc2)C1=O (stereo unspecified) end up with in this test?
false (0)

---

Biological target: methionyl-tRNA synthetase (Trypanosoma brucei brucei)
Test: inhibition of trypanosomal methionyl-tRNA synthetase – biochemical, luminescence, dose response, round 1, late-stage follow-up (AID 743153)
Conditions: recombinant T. brucei MetRS, luminescence (ATP depletion)
Active and inactive are the calls of the source. The rule behind the calls is not given here.
Thanks in advance; please answer with one of these: active, inactive

Answered examples (5):
compound: O=C(Cn1cc(C(=O)C(=O)N2CCCC2)c2ccccc21)Nc1ccccc1
assigned-class: inactive
--
compound: Cc1cccc2[nH]c(CCN(C)C(=O)c3cccc(C4CCNC4)c3)nc12 (stereo not drawn)
assigned-class: inactive
--
compound: COc1ccc(CCN(C(=O)c2cccc(F)c2)C2CC(=O)N(c3ccc(Br)cc3)C2=O)cc1 (stereo not drawn)
assigned-class: inactive
--
compound: O=C(Cn1cc(C(=O)C2CC2)c2ccccc21)Nc1cccc(C(F)(F)F)c1
assigned-class: inactive
--
compound: COc1ccc(NC(=O)CSc2nnc3c4cc(C)ccc4n(C)c3n2)cc1
assigned-class: inactive

What classification did COc1ccc(NC(=O)C2CC(=O)n3c(nc4ccccc43)N2)cc1 (stereo not drawn) end up with in this test?
inactive

---

Target: methionyl-tRNA synthetase (Trypanosoma brucei brucei)
Assay: inhibition of trypanosomal methionyl-tRNA synthetase – biochemical, luminescence, dose response, round 1, late-stage follow-up (AID 743153)
Settings: recombinant T. brucei MetRS, luminescence (ATP depletion)
Activity calls are given as the source filed them. The rule behind the calls is not given here.
Thanks in advance; please answer with one of these: active, inactive

Answered examples (2):
compound: CCN(C(=O)Cn1cc(C(=O)C(=O)N2CCOCC2)c2ccccc21)c1ccccc1
assigned-class: inactive
//
compound: Cc1ccc2[nH]c3nc(SCC(=O)Nc4ccc(C(F)(F)F)cc4)nnc3c2c1
assigned-class: inactive

What classification did "O=C(Cn1cc(C(=O)c2ccccc2)c2ccccc21)Nc1cccc(C(F)(F)F)c1" end up with in this test?
active

Now the same for "COCCc1nc2ccc(C(=O)NCCc3nc4ccc(OC)cc4[nH]3)cc2o1"
inactive

Now the same for "COc1ccccc1NC(=O)CSc1nnc2c(n1)[nH]c1ccc(C)cc12"
inactive

---

Biological target: methionyl-tRNA synthetase (Trypanosoma brucei brucei)
Assay: inhibition of trypanosomal methionyl-tRNA synthetase – biochemical, luminescence, dose response, round 1, late-stage follow-up (AID 743153)
Details: recombinant T. brucei MetRS, luminescence (ATP depletion)
Activity calls are given as the source filed them. No rule for the calls is given here.
Would you mind telling me the reported IC50 of each entry?

// below: answered compounds
compound: O=C1CC(NCCc2ccccc2)C(=O)N1c1ccc(Br)cc1 (configuration not stated)
measured-property: IC50
test-result: > 119 µM (inactive)
--
compound: Cc1ccc(C(=O)NCCc2nc3ccccc3[nH]2)cc1[N+](=O)[O-]
measured-property: IC50
test-result: 2.37 µM
--
compound: Cn1c(CCNC(=O)c2ccc(Cl)cc2)nc2ccccc21
measured-property: IC50
test-result: > 39.5 µM (inactive)

Dear colleague, could you send me IC50 for each of the items below? Thanks.
1. CCCCn1c(CCNC(=O)c2ccc(F)cc2)nc2ccccc21
2. CC(=O)c1cn(CC(=O)Nc2cccc(C(F)(F)F)c2)c2ccccc12
3. Cc1cccc(NC(=O)C2CC(=O)n3c(nc4ccccc43)N2)c1 (configuration not stated)
4. CNC(=S)N(CCc1ccccc1)C1CC(=O)N(c2ccc(Br)cc2)C1=O (configuration not stated)
5. O=C(Cn1cc(C(=O)C(=O)N2CCOCC2)c2ccccc21)NCc1ccccc1
6. O=C(NCCc1nc2ccccc2[nH]1)c1ccc(Cl)c(Cl)c1

["> 39.5 µM (inactive)", "6.2 µM", "> 39.5 µM (inactive)", "0.192 µM", "> 119 µM (inactive)", "0.609 µM"]

---

Molecular target: methionyl-tRNA synthetase (Trypanosoma brucei brucei)
Experiment: inhibition of trypanosomal methionyl-tRNA synthetase – biochemical, luminescence, dose response, round 1, late-stage follow-up (AID 743153)
Conditions: recombinant T. brucei MetRS, luminescence (ATP depletion)
Active and inactive are the calls of the source. No rule for the calls is given here.
Thanks in advance; please answer with one of these: active, inactive

Answered examples (5):
compound: Cc1ccc(C(=O)NCCc2nc3ccccc3[nH]2)cc1C
measured-on: methionyl-tRNA synthetase (Trypanosoma brucei brucei)
assigned-class: inactive
//
compound: CCN(CC)C(=O)C(=O)c1cn(CC(=O)N(CC)c2ccccc2)c2ccccc12
measured-on: methionyl-tRNA synthetase (Trypanosoma brucei brucei)
assigned-class: inactive
//
compound: O=C(C(=O)N1CCOCC1)c1cn(CC(=O)N2CCCc3ccccc32)c2ccccc12
measured-on: methionyl-tRNA synthetase (Trypanosoma brucei brucei)
assigned-class: inactive
//
compound: CC1Cc2ccccc2N1C(=O)Cn1cc(C(=O)C(=O)N2CCOCC2)c2ccccc21 (stereo not drawn)
measured-on: methionyl-tRNA synthetase (Trypanosoma brucei brucei)
assigned-class: inactive
//
compound: Cc1cc2cc(C(=O)N3CCCC(c4nc5ccccc5[nH]4)C3)ccc2o1 (stereo not drawn)
measured-on: methionyl-tRNA synthetase (Trypanosoma brucei brucei)
assigned-class: inactive

What classification did "COc1ccccc1NC(=O)Cn1cc(C(=O)C(=O)N2CCOCC2)c2ccccc21" end up with in this test?
inactive

---

Target: methionyl-tRNA synthetase (Trypanosoma brucei brucei)
Experiment: inhibition of trypanosomal methionyl-tRNA synthetase – biochemical, luminescence, dose response, round 1, late-stage follow-up (AID 743153)
Settings: recombinant T. brucei MetRS, luminescence (ATP depletion)
The source made the active and inactive calls. No rule for the calls is given here.
Thanks in advance; please answer with one of these: active, inactive

Answered examples (5):
molecule: O=C(CSC1CC(=O)N(c2cccc(Cl)c2)C1=O)Nc1ccc(Br)cc1 (configuration not stated)
measured-on: methionyl-tRNA synthetase (Trypanosoma brucei brucei)
assigned-class: inactive
//
molecule: O=C(CSc1nnc2c(n1)[nH]c1ccc(Br)cc12)NCc1ccccc1
measured-on: methionyl-tRNA synthetase (Trypanosoma brucei brucei)
assigned-class: active
//
molecule: O=C(NCCc1nc2ccccc2[nH]1)c1c(F)cccc1F
measured-on: methionyl-tRNA synthetase (Trypanosoma brucei brucei)
assigned-class: inactive
//
molecule: O=C(Cn1cc(C(=O)COc2ccccc2)c2ccccc21)Nc1cccc(C(F)(F)F)c1
measured-on: methionyl-tRNA synthetase (Trypanosoma brucei brucei)
assigned-class: inactive
//
molecule: O=C(Nc1ccc(F)c(Cl)c1)C1CC(=O)n2c(nc3ccccc32)N1 (configuration not stated)
measured-on: methionyl-tRNA synthetase (Trypanosoma brucei brucei)
assigned-class: active

What classification did Cc1cccc2[nH]c(C3CCCN(C(=O)c4cccc5cccnc45)C3)nc12 (configuration not stated) end up with in this test?
inactive

Now the same for "CC(C)c1nc2ccc(C(=O)N(C)CCc3nc4ccc(F)cc4[nH]3)cc2o1"
inactive
